Source listed as patent US20060093617A1.

Catalogue of pKi values
# target_system: HLA-Cw06 (Homo sapiens, UniProt P10321, A176E/A330V/C350S/L171W/L180W/L218V/M285V/M309V/M331V/N104K/P208H/Q277E/Q291P/R121W/R243W/S101N/S123Y/S297R/T329A/T363A/V319A/V328M)
# Construct: endogenous in cells
# assay_protocol: HLA class I competition cell-based binding assay
Remember the convention: pKi equals -log10 of concentration in molar.

Observe how each entry below is paired with its result.
INSERT INTO results (compound_structure, observation_type, result_number) VALUES
  ('CC[C@H](C)[C@H](NC(=O)CNC(=O)[C@H](CCCNC(=N)N)NC(=O)[C@H](CCCNC(=N)N)NC(=O)CN)C(=O)N[C@@H](Cc1ccc(O)cc1)C(=O)N[C@@H](CCCNC(=N)N)C(=O)N[C@@H](Cc1ccccc1)C(=O)N[C@H](C(=O)O)C(C)C', 'pKi', 6.24),
  ('CC[C@H](C)[C@H](NC(=O)[C@@H]1CCCN1C(=O)[C@@H](NC(=O)[C@H](C)NC(=O)[C@H](CCCCN)NC(=O)CNC(=O)[C@H](Cc1ccc(O)cc1)NC(=O)[C@@H](N)Cc1ccccc1)[C@@H](C)CC)C(=O)N[C@@H](CCC(=O)O)C(=O)N[C@H](C(=O)O)C(C)C', 'pKi', 5.24),
  ('CC(C)C[C@H](NC(=O)CNC(=O)[C@H](CCCNC(=N)N)NC(=O)[C@H](Cc1ccc(O)cc1)NC(=O)[C@H](Cc1ccc(O)cc1)NC(=O)[C@H](C)NC(=O)[C@@H](N)C(C)C)C(=O)N[C@@H](CC(=O)O)C(=O)N[C@H](C(=O)O)C(C)C', 'pKi', 6.64);

Query (compound): `CC(C)C[C@H](NC(=O)[C@@H](NC(=O)[C@H](CCC(N)=O)NC(=O)[C@H](CC(C)C)NC(=O)[C@H](CCCNC(=N)N)NC(=O)[C@H](CC(=O)O)NC(=O)[C@H](Cc1ccccc1)NC(=O)[C@@H](NC(=O)[C@@H](N)C(C)C)[C@@H](C)O)C(C)C)C(=O)O` ; field requested: pKi 5.95

Returns the measured pKi for the input compound. Input: `CC[C@H](C)[C@H](NC(=O)[C@@H](NC(=O)[C@@H](N)CCC(=O)O)C(C)C)C(=O)N[C@@H](CCCCN)C(=O)NCC(=O)NCC(=O)N[C@@H](CCCNC(=N)N)C(=O)N[C@@H](Cc1c[nH]cn1)C(=O)N[C@@H](CC(C)C)C(=O)O` 4.89

====

# target_system: DRB1*0101 (Homo sapiens, UniProt P01903+P01911, A100R/D57E/F55L/F60I/F76Y/I96L/L162R/M171V/P40L/Q125E/R42F/V115G/Y59C)
# Construct: endogenous in cells; host or cells: cell lysate
# assay_protocol: Competition binding assay using soluble HLA class II
pIC50: −log10 of the molar value.
So basically: pIC50 at 6 or higher? That is yes. Lower than 6? That is no.

Solved cases below.
INSERT INTO measurements (compound_structure, cat) VALUES
  ('CC(C)C[C@H](NC(=O)[C@@H](NC(=O)[C@H](C)NC(=O)[C@H](C)NC(=O)[C@@H](NC(=O)[C@H](CO)NC(=O)[C@@H]1CCCN1C(=O)[C@H](CC(N)=O)NC(=O)[C@H](CC(C)C)NC(=O)[C@@H](NC(=O)[C@H](CC(C)C)NC(=O)[C@@H](NC(=O)[C@H](CCCCN)NC(=O)[C@H](Cc1ccc(O)cc1)NC(=O)CN)C(C)C)C(C)C)C(C)C)[C@@H](C)O)C(=O)O', 'yes'),
  ('CC[C@H](C)[C@H](NC(=O)[C@H](Cc1ccc(O)cc1)NC(=O)CNC(=O)[C@H](CCSC)NC(=O)[C@H](CC(C)C)NC(=O)[C@H](CC(=O)O)NC(=O)[C@H](C)N)C(=O)N1CCC[C@H]1C(=O)N[C@@H](CC(C)C)C(=O)N[C@H](C(=O)NCC(=O)N[C@@H](C)C(=O)N1CCC[C@H]1C(=O)N[C@@H](CC(C)C)C(=O)NCC(=O)O)C(C)C', 'no'),
  ('CC[C@H](C)[C@H](NC(=O)[C@H](CC(C)C)NC(=O)[C@H](CC(=O)O)NC(=O)[C@H](C)NC(=O)[C@@H](N)CC(=O)O)C(=O)N[C@@H](CCC(=O)O)C(=O)N[C@@H](C)C(=O)N[C@@H](CC(N)=O)C(=O)N[C@@H](CC(C)C)C(=O)N[C@@H](CC(C)C)C(=O)N[C@@H](Cc1c[nH]c2ccccc12)C(=O)N[C@@H](CCCNC(=N)N)C(=O)N[C@@H](CCC(N)=O)C(=O)N[C@@H](CCC(=O)O)C(=O)N[C@@H](CCSC)C(=O)O', 'yes'),
  ('CC[C@H](C)[C@H](NC(=O)[C@H](CC(N)=O)NC(=O)CNC(=O)[C@H](CC(C)C)NC(=O)[C@H](Cc1c[nH]c2ccccc12)NC(=O)[C@H](CO)NC(=O)[C@H](CC(N)=O)NC(=O)[C@@H](N)C(C)C)C(=O)N[C@H](C(=O)N[C@@H](CCSC)C(=O)N[C@@H](Cc1ccc(O)cc1)C(=O)N[C@@H](C)C(=O)N1CCC[C@H]1C(=O)N[C@H](C(=O)N[C@@H](CC(C)C)C(=O)O)[C@@H](C)O)[C@@H](C)CC', 'yes');

Quick check: does `CC(C)C[C@H](NC(=O)[C@H](CCC(N)=O)NC(=O)[C@H](CO)NC(=O)[C@H](C)N)C(=O)N[C@@H](CO)C(=O)N[C@@H](C)C(=O)N1CCC[C@H]1C(=O)N[C@@H](CO)C(=O)N[C@@H](CC(C)C)C(=O)N[C@@H](CCCCN)C(=O)N[C@@H](C)C(=O)N[C@H](C(=O)N[C@@H](CS)C(=O)N[C@H](C(=O)N[C@H](C(=O)O)[C@@H](C)O)[C@@H](C)O)[C@@H](C)O` have pIC50 greater than or equal to 6? yes
